- assay remarks: chemical genetic growth profiling, strain panel (AID 1159580);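 also: tested at 20 µM; growth read once vehicle control cultures reached saturation at 30 °C; 1 = growth at the plate median or of vehicle wells; lower values mean less growth of the strain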
- condition set: S. cerevisiae deletion strains, growth OD, locus YNL020C, strain ARK1, active compounds read low
In all, about 5,500 compounds went through this assay and about 2,000 (36%) were called active. Not shown: some 18% with an inconclusive outcome. The list shows a part of the results.
Would you mind telling me the reported normalized growth of each entry?

N/C(Cc1cccc2ccccc12)=N/OC(=O)c1ccc(Cl)cc1: 0.909 (inactive)
O=[N+]([O-])c1cccc(C2CC(c3ccccc3)=Nc3ccccc3S2)c1 (stereo not given): 0.963 (inactive)
Cc1ccc(-c2csc(-c3ccncc3)n2)cc1: 0.842 (inactive)
C#CCSC1=NNC(c2ccccn2)S1 (stereo not given): 0.137 (active)

Consider the additional molecule presented here.
Form field: reported normalized growth of Brc1ccc(-c2csc(-c3ccncc3)n2)cc1
0.868 (inactive)

====

Would you mind telling me the reported normalized growth of each entry?
- assay remarks: chemical genetic growth profiling, strain panel (AID 1159580);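 also: tested at 20 µM; growth read once vehicle control cultures reached saturation at 30 °C; 1 = growth at the plate median or of vehicle wells; lower values mean less growth of the strain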
- condition set: S. cerevisiae deletion strains, growth OD, locus YHR079C, strain IRE1, active compounds read low
The campaign covered roughly 5,500 compounds. About 2,000 (36%) were called active. Not shown: some 18% with an inconclusive outcome. The list shows a part of the results.
Give bare numbers.

CC(C)=CCc1c2c(c3occ(-c4ccc(O)cc4)c(=O)c3c1O)C=CC(C)(C)O2: 0.992
OC[C@H]1O[C@@H](O[C@H]2[C@H](O)[C@@H](O)[C@@H](O)O[C@@H]2CO)[C@H](O)[C@@H](O)[C@@H]1O: 0.96
CNCCCC12CCC(c3ccccc31)c1ccccc12: 1.01

Each molecule below has a recorded value; state its normalized growth.
1. CC(C)C[C@@H](CN)CC(=O)O
2. CC(C)c1ccc2c(c1)CCC1C(C)(C(N)=O)CCCC21C (configuration not stated)
3. CC1=CC(=O)c2ccccc2C1=O
4. CC(C)(C)NCC(O)c1ccc(O)c(CO)c1 (configuration not stated)
5. Oc1cccc(O)c1
6. CSc1sc(C(=O)Sc2ccccc2)cc1S(=O)(=O)C(C)C

[0.981, 0.848, 0.291, 1.03, 1.05, 1]

Each molecule below has a recorded value; state its normalized growth.
1. CC(C)c1ccc2c(c1)CCC1[C@](C)(CN)CCC[C@]21C (some centres not stated)
2. CC(C)(C)c1cc(C(=O)NNc2cccc(Cl)c2)n(Cc2ccccc2)n1
3. OC[C@H]1O[C@@](CO)(O[C@@H]2O[C@H](CO)[C@@H](O)[C@H](O)[C@H]2O)[C@@H](O[C@@H]2O[C@H](CO)[C@@H](O)[C@H](O)[C@H]2O)[C@@H]1O
4. NC1=NCCN1CC(=O)O
5. CC(=O)O[C@@H]1CC2C(C)(C)C(=O)C=C[C@]2(C)C2CC[C@]3(C)C(=CC(=O)O[C@H]3c3ccoc3)[C@@]21C (some centres not stated)
6. CC(CCc1ccccc1)NCC(O)c1ccc(O)c(C(N)=O)c1 (configuration not stated)
7. CC1(C)CC2C1CC[C@]1(C)CCC3C(C(=O)O)CC(=O)O[C@@]32C1 (some centres not stated)

1: 0.964; 2: 0.927; 3: 1.02; 4: 0.992; 5: 0.997; 6: 1.04; 7: 1

Each molecule below has a recorded value; state its normalized growth.
1. CC(C)NCC(O)COc1ccc(COCCOC(C)C)cc1 (configuration not stated)
2. O=C(O)C1=CCCNC1

1.05
1.04

Each molecule below has a recorded value; state its normalized growth.
1. Cc1ccc2nc(-c3ccc4c(c3)OCCO4)cn2c1
2. CC(=O)N[C@@H](Cc1c[nH]c2ccccc12)C(N)=O
3. NC(=S)N/N=C1/CCCc2ccccc21
4. CC12CCC3C(CC3(C)C)C(C)(CCC1=O)O2 (configuration not stated)
5. CS(=O)(=O)Nc1ccc([N+](=O)[O-])cc1Oc1ccccc1
6. CN(C)[C@@H]1C(=O)C(C(N)=O)=C(O)[C@@]2(O)C(=O)C3=C(O)c4c(O)ccc(Cl)c4[C@@](C)(O)[C@H]3C[C@@H]12
7. O=S(=O)(Nc1ccccc1Oc1ccccc1)c1ccc(-c2ccno2)s1
8. CC1(C)CC2C1CC[C@]1(CBr)CCC3C(CC(=O)O)C(=O)O[C@@]32C1 (some centres not stated)

0.966
0.99
0.954
1.03
1.04
1.1
0.954
1.02

====

- assay remarks: chemical genetic growth profiling, strain panel (AID 1159580);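 also: tested at 20 µM; growth read once vehicle control cultures reached saturation at 30 °C; 1 = growth at the plate median or of vehicle wells; lower values mean less growth of the strain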
- condition set: S. cerevisiae deletion strains, growth OD, locus YDL101C, strain DUN1
Among all 5,500 compounds or so, about 2,000 (36%) were called active. Inconclusive results (about 18%) are left out. Cut-off read from the data, not from the text of the source: active = normalized growth mostly below about 0.91 (no sharp cut-off); inconclusive = no clear call, values can overlap the other calls; inactive = mostly above about 0.92. This is one part of the list.
The reply should name one outcome from T = active, F = inactive

# count of solved cases: 3
N=C(N)N: F
Cc1ccc2nc(-c3ccc4c(c3)OCCO4)cn2c1: F
CCN1CCN(C(=O)NC(C(=O)N[C@@H]2C(=O)N3[C@@H]2SC(C)(C)[C@@H]3C(=O)O)c2ccccc2)C(=O)C1=O (stereo partly specified): F

// param item: COc1c(Br)csc1C(=O)O/N=C(/N)c1cc(C(F)(F)F)cc(C(F)(F)F)c1 ; yields the recorded call
F

// param item: CC(CCc1ccccc1)NCC(O)c1ccc(O)c(C(N)=O)c1 (stereo unspecified) ; yields the recorded call
F

// param item: CC(C)c1ccc2c(c1)CCC1C(C)(C(N)=O)CCCC21C (stereo unspecified) ; yields the recorded call
F

// param item: Cc1ccc2c(c1)C1(C)CCCC(C)(C(=O)O)C1CC2 (stereo unspecified) ; yields the recorded call
F

// param item: CC(=O)N[C@@H](Cc1c[nH]c2ccccc12)C(N)=O ; yields the recorded call
F

====

- assay remarks: chemical genetic growth profiling, strain panel (AID 1159580);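 also: tested at 20 µM; growth read once vehicle control cultures reached saturation at 30 °C; 1 = growth at the plate median or of vehicle wells; lower values mean less growth of the strain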
- condition set: S. cerevisiae deletion strains, growth OD, locus YGR135W, strain pre9, active compounds read low
The whole screen tested about 5,500 compounds, of which about 2,000 (36%) were called active. Not shown: some 18% with an inconclusive outcome. The list shows a part of the results.
metric name: normalized growth
One number for each entry.

COC(=O)/C(=C1\OC(=O)C(c2ccccc2)=C1O)c1ccccc1: 0.995
CC(N=C(NC#N)Nc1ccncc1)C(C)(C)C (centres undefined): 1.03
CC(C)CCCC(C)C1CC[C@@]2(C)C3=C(CC[C@]12C)[C@@]1(C)CC[C@H](O)C(C)(C)C1CC3 (some centres undefined): 0.995
COc1cc(C(C)=O)cc(OC)c1O: 0.994
NC(Cn1ccc(=O)c(O)c1)C(=O)O (centres undefined): 1.02

Each molecule below has a recorded value; state its normalized growth.
1. Oc1cccc(O)c1
2. CC(C)CCCC(C)C1CCC2C3=CC[C@H]4C[C@@H](O)CC[C@]4(C)C3CC[C@@]21C (some centres undefined)
3. Oc1c(Cl)cc(Cl)cc1Sc1cc(Cl)cc(Cl)c1O
4. CC(=O)c1ccc(O)c(CC=C(C)C)c1
5. CC(=O)O[C@H]1CCC2(C)C3=C(CCC2C1(C)C)[C@@]1(C)CC[C@@H](C(C)CCC=C(C)C)[C@]1(C)CC3 (some centres undefined)

1. 0.986
2. 0.982
3. 0.98
4. 0.934
5. 1

Each molecule below has a recorded value; state its normalized growth.
1. CCCOc1ccc2nc(NC(=O)OC)[nH]c2c1
2. CC(=O)c1cc(CC=C(C)C)c(O)c(CC=C(C)C)c1
3. OC[C@H]1O[C@@H](O[C@@H]2[C@@H](CO)O[C@](O)(CO)[C@H]2O)[C@H](O)[C@@H](O)[C@H]1O

1: 0.953; 2: 0.978; 3: 0.941

Each molecule below has a recorded value; state its normalized growth.
1. CN(C)C(=O)Oc1cccc([N+](C)(C)C)c1
2. CC1=CC(=O)c2ccccc2C1=O
3. Cc1cc(=O)oc2cc(O)c(O)cc12
4. CCCSc1ccc2nc(NC(=O)OC)[nH]c2c1

0.981
0.0619
0.957
0.944

Each molecule below has a recorded value; state its normalized growth.
1. CN(C)[C@@H]1C(=O)C(C(N)=O)=C(O)[C@@]2(O)C(=O)C3=C(O)c4c(O)ccc(Cl)c4[C@@](C)(O)[C@H]3C[C@@H]12
2. C[n+]1ccccc1/C=N/O
3. CC(C)CCCC(C)[C@H]1CCC2C3CC=C4CC(=O)CC[C@]4(C)C3CC[C@@]21C (some centres undefined)
4. CC(C)CC1NC(=O)CNC1=O (centres undefined)
5. CC(=O)O[C@H]1CC[C@@]2(C)C(=CC(=O)C3C4CCC(C(C)CCCC(C)C)[C@@]4(C)CCC32)C1 (some centres undefined)

1. 0.994
2. 1.01
3. 0.942
4. 0.966
5. 0.984

Each molecule below has a recorded value; state its normalized growth.
1. CC(Cc1cccc(C(F)(F)F)c1)NCCOC(=O)c1ccccc1 (centres undefined)
2. CCOC(=O)NNc1nncc2ccccc12

1. 0.914
2. 0.97
